Origin of values: patent US6030823A

system: D-aminoacylase derived from Sebekia benihana IFO14309; test: Influences of inhibitors on the activity of the enzyme; assay type: biochemical; conditions: inhibitor 10 mM
For each record, write down the corresponding Residual activity.
Kindly provide the numeric value in % only, without the unit symbol.

// map [F-].[Na+] to recorded Residual activity (system: D-aminoacylase derived from Sebekia benihana IFO14309) 88

// map c1ccc(-c2ccccn2)nc1 to recorded Residual activity (system: D-aminoacylase derived from Sebekia benihana IFO14309) 88

// map CCN1C(=O)C=CC1=O [N-ethyl-maleimide] to recorded Residual activity (system: D-aminoacylase derived from Sebekia benihana IFO14309) 69

// map OC(CS)C(O)CS (stereo not shown) to recorded Residual activity (system: D-aminoacylase derived from Sebekia benihana IFO14309) 3.4
